ASSAY PROCEDURE: Antiproliferative activity against human DND41 cells assessed as reduction in cell viability incubated for 72 hrs by IncuCyte live-cell automated imaging analysis
EXPERIMENTAL SETUP: DND41, 72 h
pIC50: −log10 of the molar value.

[
  {
    "SMILES REPR": "CCOc1ccc2cc(-c3nn(CC4CCN(C)CC4)c4ncnc(N)c34)ccc2n1",
    "LIMIT QUALIFIER": "=",
    "pIC50": 4.45
  },
  {
    "SMILES REPR": "CC(C)(CO)Cn1nc(-c2c[nH]c3ccccc23)c2c(N)ncnc21",
    "LIMIT QUALIFIER": "=",
    "pIC50": 4.88
  },
  {
    "SMILES REPR": "CC(C)(C)n1nc(-c2c[nH]c3ccccc23)c2c(N)ncnc21",
    "LIMIT QUALIFIER": "=",
    "pIC50": 5.01
  },
  {
    "SMILES REPR": "CC(C)(C)n1nc(Cc2cccc3ccccc23)c2c(N)ncnc21",
    "LIMIT QUALIFIER": "<",
    "pIC50": 4.58
  },
  {
    "SMILES REPR": "CC[C@@H](N)CNc1ccnc(-c2cc(-c3cnn(C)c3)ccc2O)n1",
    "LIMIT QUALIFIER": "=",
    "pIC50": 6.00
  },
  {
    "SMILES REPR": "Cn1cc(-c2nn(C(C)(C)C)c3ncnc(N)c23)c2ccccc21",
    "LIMIT QUALIFIER": "<",
    "pIC50": 4.38
  },
  {
    "SMILES REPR": "Nc1ncnc2c1c(-c1c[nH]c3ccccc13)nn2CC1CCNCC1",
    "LIMIT QUALIFIER": "=",
    "pIC50": 4.37
  }
]

Data origin, for the record: ChEMBL document CHEMBL4765437
